Item-by-item account of Predicted Hepatic Clearance (Pred. Cl.)
Experiment: Microsomal stability, human liver microsomes (predicted hepatic clearance)
Conditions: predicted from in vitro microsomal stability data
Give the value, in units of mL/min/kg, as a plain number.

Use these answered entries as a reference point.
compound="N#Cc1ccc(COc2cccc(-c3cc(F)c(Cc4nc5ccc(C(=O)O)cc5n4CC45CC(CO4)C5)cc3F)n2)c(F)c1 [Example 574]" unitstring=mL/min/kg measuredresult=1.92
compound=NC(=O)c1cc(F)c(COc2cccc(-c3cc(F)c(Cc4nc5ccc(C(=O)O)cc5n4C[C@@H]4CCO4)cc3F)n2)cn1 unitstring=mL/min/kg measuredresult=2.33

Proceed to the following item.
Exercise: Given the entry N#Cc1ccc(COc2nc(-c3cc(F)c(Cc4nc5ccc(C(=O)O)cc5n4C[C@@H]4CCO4)c(F)c3F)ncc2F)c(F)c1 , report its measured Predicted Hepatic Clearance (Pred. Cl.).
Solution: 4.83

The reported numbers originate from patent US11702404B2.
